Target: PDE1C (Homo sapiens)
Sequence (Q14123 whole entry): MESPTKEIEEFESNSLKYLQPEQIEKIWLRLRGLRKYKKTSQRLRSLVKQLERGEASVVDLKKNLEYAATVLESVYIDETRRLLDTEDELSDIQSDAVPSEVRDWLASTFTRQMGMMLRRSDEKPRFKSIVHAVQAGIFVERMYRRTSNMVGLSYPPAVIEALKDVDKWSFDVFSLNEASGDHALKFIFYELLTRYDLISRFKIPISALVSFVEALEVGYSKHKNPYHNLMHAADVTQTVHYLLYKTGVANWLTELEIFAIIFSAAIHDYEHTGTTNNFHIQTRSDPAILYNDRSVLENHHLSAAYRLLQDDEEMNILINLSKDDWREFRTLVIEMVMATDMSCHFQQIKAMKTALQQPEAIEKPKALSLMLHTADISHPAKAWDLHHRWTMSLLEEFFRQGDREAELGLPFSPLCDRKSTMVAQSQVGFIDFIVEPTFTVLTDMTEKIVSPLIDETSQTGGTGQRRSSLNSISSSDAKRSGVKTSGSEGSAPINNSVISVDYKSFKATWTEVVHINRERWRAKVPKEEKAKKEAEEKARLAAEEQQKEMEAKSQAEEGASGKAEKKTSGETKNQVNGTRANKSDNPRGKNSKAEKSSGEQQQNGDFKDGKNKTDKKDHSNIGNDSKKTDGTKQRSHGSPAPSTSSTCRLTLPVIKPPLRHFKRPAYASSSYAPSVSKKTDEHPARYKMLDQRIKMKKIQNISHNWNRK
Experiment: PDE1 inhibition assay (SPA), PDE1C
Assay type: biochemical
Conditions: concentration required to reach 50% inhibition of the enzyme; 15 nM tritium labelled cAMP; read-out: PDE1C inhibition (nM or %): IC50
Test Readout: log10 IC50 (log10 of the value in nM)

                                    molecule  reported_value
 0  COc1ccc(Cn2c(C)cn3c(C4CCOCC4)nnc3c2=O)cc1            1.57
 1          CCCc1nnc2c(=O)n(Cc3ccccc3F)ccn12            2.11
 2  CCCCC(CC)c1nnc2c(=O)n(Cc3cccc(F)c3)ccn12 (stereo not shown)            2.68
 3     CCCc1nnc2c(=O)n(Cc3cccc(F)c3)cc(C)n12            2.41
 4  O=c1c2nnc(CC3CCOC3)n2ccn1Cc1cccc(F)c1 (stereo not shown)            2.62
 5  O=c1c2nnc(C3CCOCC3)n2cc(Cc2ccccc2)n1CC1CCCC1            0.70
 6  O=c1c2nnc(C3CCOCC3)n2cc(Br)n1Cc1cccc(F)c1            1.38
 7  Cc1ccc(Cc2cn3c(C4CCOCC4)nnc3c(=O)n2CC2CCCCC2)cc1            0.00
 8        CCc1nnc2c(=O)n(Cc3ccc(Cl)cc3)ccn12            3.38
 9     O=c1c2nnc(C3CCCCC3)n2ccn1Cc1cccc(F)c1            2.08
10      O=c1c2nnc(C3CCCC3)n2ccn1Cc1cccc(F)c1            2.90
11  O=c1c2nnc([C@H]3CC[C@H](O)CC3)n2ccn1Cc1cccc(F)c1            2.30
12  O=c1c2nnc(C3CCOCC3)n2cc(Cc2ccc(F)cc2)n1CC1CCCCC1            0.78
13  Cc1cccc(Cc2cn3c(C4CCOCC4)nnc3c(=O)n2CC2CCCCC2)c1            0.00
14    CCCc1nnc2c(=O)n(Cc3cccc(F)c3)c(Br)cn12            1.30
15  CCCc1nnc2c(=O)n(Cc3ccc(C(F)(F)F)cc3)ccn12            3.32
16  CCCc1nnc2c(=O)n(CC3CCC(F)CC3)ccn12 (mixture of isomers)            2.79
17  CCCc1nnc2c(=O)n(Cc3cccc(F)c3)c([C@@H]3CCOC3)cn12 (single isomer, unassigned)            2.43
18  O=c1c2nnc(C3CCOCC3)n2cc(Cc2ccc(F)cc2)n1CC1CCCCCC1            0.60
19          CC(C)CCn1ccn2c(C3CCOCC3)nnc2c1=O            3.04
20     CCCc1nnc2c(=O)n(CC3CCC(F)(F)CC3)ccn12            2.88
21     CCCc1nnc2c(=O)n(CC3CCC4(CC3)CC4)ccn12            1.96
22       CCCc1nnc2c(=O)n(Cc3cccc(Cl)c3)ccn12            2.20
23        O=c1c2nnc(C3CCOCC3)n2ccn1CC1CCCCC1            1.94
24        CCCc1nnc2c(=O)n(Cc3cccc(C)c3)ccn12            2.23
25     CCCc1nnc2c(=O)n(Cc3cccc(F)c3)c(C)cn12            1.66
26     O=c1c2nnc(C3CCOCC3)n2cc(Br)n1CC1CCCC1            0.78
27  O=c1c2nnc(C3CCOCC3)n2cc(Cc2cccc(F)c2)n1CC1CCCC1            1.43
28  O=c1c2nnc(C3CCOCC3)n2cc(Cc2ccccc2)n1Cc1cccc(F)c1            0.70
29  O=c1c2nnc(C3CCOC3)n2ccn1Cc1ccc(Cl)cc1 (stereo not shown)            2.88
30        CCCc1nnc2c(=O)n(Cc3ccc(C)cc3)ccn12            2.89
31         CCCc1nnc2c(=O)n(Cc3ccccc3Cl)ccn12            2.63
32  Cc1ccc(Cc2cn3c(C4CCOCC4)nnc3c(=O)n2CC2CCCC2)cc1            0.48
33    CCCc1nnc2c(=O)n(Cc3cccc(F)c3)c(CC)cn12            1.70
34     O=c1c2nnc(C3CCOCC3)n2ccn1Cc1cccc(F)c1            2.15
35       O=c1c2nnc(C3COC3)n2ccn1Cc1cccc(F)c1            3.23
36    O=c1c2nnc(CC(F)(F)F)n2ccn1Cc1cccc(F)c1            2.58
37           CCCc1nnc2c(=O)n(Cc3ccccc3)ccn12            2.04
38   O=c1c2nnc(C3CCOCC3)n2cc(Br)n1CC1CCCCCC1            0.48
39  Cc1ccccc1Cc1cn2c(C3CCOCC3)nnc2c(=O)n1CC1CCCCC1            1.00
40        O=c1c2nnc(C3CC3)n2ccn1Cc1cccc(F)c1            2.32
